Biological target: UNC-8d (Caenorhabditis elegans, UniProt Q21974, G387E)
Sequence (Q21974 1-737 isoform Q21974-4 G347E): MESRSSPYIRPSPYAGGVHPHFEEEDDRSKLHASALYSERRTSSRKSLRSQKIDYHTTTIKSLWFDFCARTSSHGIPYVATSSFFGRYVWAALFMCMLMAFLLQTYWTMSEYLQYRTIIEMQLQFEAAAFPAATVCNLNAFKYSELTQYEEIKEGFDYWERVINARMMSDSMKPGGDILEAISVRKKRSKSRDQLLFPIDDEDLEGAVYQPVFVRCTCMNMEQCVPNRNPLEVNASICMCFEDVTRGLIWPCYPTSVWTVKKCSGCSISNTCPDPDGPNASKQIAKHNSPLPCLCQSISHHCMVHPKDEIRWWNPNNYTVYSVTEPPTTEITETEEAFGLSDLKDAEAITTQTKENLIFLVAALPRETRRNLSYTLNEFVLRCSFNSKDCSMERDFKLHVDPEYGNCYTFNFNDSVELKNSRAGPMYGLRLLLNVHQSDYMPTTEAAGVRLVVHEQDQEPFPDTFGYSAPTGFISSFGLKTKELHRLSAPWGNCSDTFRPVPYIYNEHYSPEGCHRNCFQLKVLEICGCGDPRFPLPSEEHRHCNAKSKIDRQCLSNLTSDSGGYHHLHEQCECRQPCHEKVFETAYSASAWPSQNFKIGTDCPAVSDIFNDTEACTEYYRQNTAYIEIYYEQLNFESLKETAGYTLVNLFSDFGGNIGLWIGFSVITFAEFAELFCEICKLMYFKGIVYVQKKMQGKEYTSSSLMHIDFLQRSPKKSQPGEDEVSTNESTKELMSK
Test: Two-electrode voltage clamp of oocytes coexpressing MEC-2 and UNC-8d
Format: cell-based, C. elegans
Conditions: IC50, −60 mV, control saline (divalent-containing solution)
Readout name: IC50 (µM)
Please give a number only; it is taken to be in µM.

NC(=NCc1ccccc1)NC(=O)c1nc(Cl)c(N)nc1N [Benzamil, benzamil] has a reported IC50 of 14.8

* * *

Target: MEC-4d (Caenorhabditis elegans, UniProt P24612, A713T)
Sequence (P24612 whole entry A713T): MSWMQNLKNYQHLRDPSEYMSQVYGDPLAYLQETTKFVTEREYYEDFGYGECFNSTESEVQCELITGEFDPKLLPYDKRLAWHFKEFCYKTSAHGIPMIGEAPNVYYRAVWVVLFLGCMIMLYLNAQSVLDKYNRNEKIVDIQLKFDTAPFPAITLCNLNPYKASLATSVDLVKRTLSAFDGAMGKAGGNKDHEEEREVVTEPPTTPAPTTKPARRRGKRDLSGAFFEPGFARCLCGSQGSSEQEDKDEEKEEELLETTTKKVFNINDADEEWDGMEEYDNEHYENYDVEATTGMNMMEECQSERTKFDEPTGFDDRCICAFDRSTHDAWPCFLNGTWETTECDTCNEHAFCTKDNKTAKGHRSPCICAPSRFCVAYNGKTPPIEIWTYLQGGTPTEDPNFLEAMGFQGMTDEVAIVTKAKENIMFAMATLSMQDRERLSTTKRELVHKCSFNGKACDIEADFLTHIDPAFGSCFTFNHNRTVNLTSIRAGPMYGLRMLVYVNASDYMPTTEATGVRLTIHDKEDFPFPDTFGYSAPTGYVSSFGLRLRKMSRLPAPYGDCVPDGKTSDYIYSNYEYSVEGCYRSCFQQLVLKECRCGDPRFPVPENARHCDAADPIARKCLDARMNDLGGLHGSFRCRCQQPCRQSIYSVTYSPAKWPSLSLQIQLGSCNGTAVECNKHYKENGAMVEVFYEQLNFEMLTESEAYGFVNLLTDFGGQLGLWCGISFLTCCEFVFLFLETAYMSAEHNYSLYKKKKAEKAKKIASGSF
Assay: Two-electrode voltage clamp of oocytes coexpressing MEC-2 and MEC-4d
Readout name: EC50
# answer = value followed by unit

CC(=O)Oc1ccccc1C(=O)O has a reported EC50 of 79.9 µM

* * *

Molecular target: MEC-4d (Caenorhabditis elegans, UniProt P24612, A713T)
Assay: Two-electrode voltage clamp of oocytes coexpressing MEC-2 and MEC-4d
Assay type: cell-based, C. elegans
Readout name: pIC50
The scale used: pIC50 is minus the common logarithm of the concentration in molar units.

CCN(c1nc(N)c(C(=O)NC(=N)N)nc1Cl)C(C)C [EIPA, 5-(N-ethyl-N-isopropyl)amiloride] has a reported pIC50 of 5.51

* * *

Target: UNC-8d (Caenorhabditis elegans, UniProt Q21974, G387E)
Test: Two-electrode voltage clamp of oocytes coexpressing MEC-2 and UNC-8d
Format: cell-based, C. elegans
Settings: IC50, −100 mV, control saline (divalent-containing solution)
Readout name: pIC50
The scale used: pIC50 is minus the common logarithm of the concentration in molar units.

NC(=NCc1ccccc1)NC(=O)c1nc(Cl)c(N)nc1N has a reported pIC50 of 4.82

* * *

Target: UNC-8d (Caenorhabditis elegans, UniProt Q21974, G387E)
Assay: Two-electrode voltage clamp of oocytes coexpressing MEC-2 and UNC-8d
Type: cell-based, C. elegans
Settings: 30 µM
Readout name: effect on UNC-8d current

NC(=Nc1ccccc1)NC(=O)c1nc(Cl)c(N)nc1N has a reported effect on UNC-8d current of inhibited

NC(=NCc1ccccc1)NC(=O)c1nc(Cl)c(N)nc1N has a reported effect on UNC-8d current of inhibited

N=C(N)c1ccccc1 has a reported effect on UNC-8d current of inhibited

N=C(N)NC(=O)c1nc(Cl)c(N)nc1N [Amiloride, amiloride] has a reported effect on UNC-8d current of inhibited

CC(C(=O)O)c1ccc(-c2ccccc2)c(F)c1 (centres unmarked) has a reported effect on UNC-8d current of partially inhibit

---
CCN(c1nc(N)c(C(=O)NC(=N)N)nc1Cl)C(C)C [EIPA, 5-(N-ethyl-N-isopropyl)amiloride] has a reported effect on UNC-8d current of inhibited

O=C(O)Cc1ccccc1Nc1c(Cl)cccc1Cl has a reported effect on UNC-8d current of partially inhibit

Values were extracted from paper PMC7933985.
